# Test system: optic nerve
# Test summary: tissue or blood
# Format: cell-based
# Run conditions: Rattus norvegicus; 30 μM of each drug; OGD 1 h; cGMP accumulation; compared with protection achieved by TTX; read-out: % protection accorded
Rule: inhibition at 30 µM of 40% or more gives Fulfilled; anything lower gives Not fulfilled.

1. CC(C)(C)c1cc(C(=O)NNC(=O)Nc2cccc(Cl)c2)n(Cc2ccccc2)n1 | Not fulfilled
2. Cn1nc(C(C)(C)C)cc1C(=O)Nc1ccc(C(C)(C)C)cc1 [Example 26] | Not fulfilled
3. Cn1nc(C(C)(C)C)cc1C(=O)Nc1ccc(Cl)cc1 | Fulfilled
4. Cn1c(SCC(=O)c2ccccc2)nnc1-c1cc(C(C)(C)C)nn1Cc1ccc(F)cc1 | Not fulfilled
5. Cc1cccc(NC(=O)c2cc(C)n(Cc3c(Cl)cccc3Cl)n2)c1 | Not fulfilled
6. Cn1c(SCc2ccccc2)nnc1-c1cc(C(C)(C)C)nn1Cc1ccc(F)cc1 | Fulfilled
7. Cc1ccc(NC(=O)c2cc(C(C)(C)C)nn2Cc2ccccc2)cc1 | Fulfilled

Alright, here's another compound for you.
(Q) Reported inhibition at 30 µM reaches at least 40% for `Cn1c(SCC(=O)c2ccc(Cl)cc2)nnc1-c1cc(C(C)(C)C)nn1Cc1ccc(F)cc1` ?
(A) Not fulfilled

Reference source: patent US7790761B2
